Target: T1, mouse ChemR23, PathHunter β-Arrestin cell line (mouse, UniProt P97468 1-371)
T1 sequence (P97468 whole entry, looked up): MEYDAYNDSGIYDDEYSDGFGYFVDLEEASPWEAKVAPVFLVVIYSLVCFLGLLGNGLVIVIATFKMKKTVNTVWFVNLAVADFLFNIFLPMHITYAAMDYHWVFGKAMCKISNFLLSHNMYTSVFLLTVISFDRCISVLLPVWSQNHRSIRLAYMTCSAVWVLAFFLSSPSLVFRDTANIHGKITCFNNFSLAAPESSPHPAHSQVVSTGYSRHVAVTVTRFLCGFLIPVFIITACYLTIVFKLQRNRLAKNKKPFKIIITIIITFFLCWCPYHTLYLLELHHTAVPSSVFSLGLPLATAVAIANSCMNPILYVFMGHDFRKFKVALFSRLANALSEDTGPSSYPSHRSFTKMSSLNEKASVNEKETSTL
Assay: cell-based or functional assay
Reported IC50, Arrestin, Antagonist (RC50, uM) values follow for various binders
Reported Metric: IC50, Arrestin, Antagonist (RC50, uM)

                                     binder  meas_value
0  AGEDPHGYFLPGQFA [mouse chemerin C15 peptide]     > 10 µM
1  AGEDPHSFYFPGQFAFS [human chemerin C17 peptide]     > 10 µM
2  AGEDPHSFYFPGQFAF [human chemerin C16 peptide]     > 10 µM
3  AGEDPHSFYFPGQFA [human chemerin C15 peptide]     9.66 µM
